RUN_DESCRIPTION: in vitro
CONDITION_DETAILS: human, microsomes
MEASURED_PROPERTY: CLint scaled at 1.5 h
Answers without a unit are incomplete; give the number and then its unit.

Study these solved cases before continuing.
SMILES_RECORD	CLint scaled at 1.5 h
Cc1ccc(S(=O)(=O)N2CCC(C(=O)NC34CC5CC(CC(C5)C3)C4)CC2)c(C)c1	90 mL/min/kg
Cc1ccc(S(=O)(=O)N2CCC(C(=O)Nc3ccccc3O)CC2)c(C)c1	520 mL/min/kg
Cc1ccc(S(=O)(=O)N2CCC(C(=O)Nc3ccc4ccccc4c3)CC2)c(C)c1	140 mL/min/kg

Please look at the following molecule next.
Input: Param item = Cc1ccc(S(=O)(=O)N2CCC(C(=O)NC3CC3)CC2)c(C)c1 ; retrieve measured CLint scaled at 1.5 h.
Output: 7 mL/min/kg

====

ASSAYED_SYSTEM: Human sEH (Homo sapiens)
Sequence (P34913 whole entry): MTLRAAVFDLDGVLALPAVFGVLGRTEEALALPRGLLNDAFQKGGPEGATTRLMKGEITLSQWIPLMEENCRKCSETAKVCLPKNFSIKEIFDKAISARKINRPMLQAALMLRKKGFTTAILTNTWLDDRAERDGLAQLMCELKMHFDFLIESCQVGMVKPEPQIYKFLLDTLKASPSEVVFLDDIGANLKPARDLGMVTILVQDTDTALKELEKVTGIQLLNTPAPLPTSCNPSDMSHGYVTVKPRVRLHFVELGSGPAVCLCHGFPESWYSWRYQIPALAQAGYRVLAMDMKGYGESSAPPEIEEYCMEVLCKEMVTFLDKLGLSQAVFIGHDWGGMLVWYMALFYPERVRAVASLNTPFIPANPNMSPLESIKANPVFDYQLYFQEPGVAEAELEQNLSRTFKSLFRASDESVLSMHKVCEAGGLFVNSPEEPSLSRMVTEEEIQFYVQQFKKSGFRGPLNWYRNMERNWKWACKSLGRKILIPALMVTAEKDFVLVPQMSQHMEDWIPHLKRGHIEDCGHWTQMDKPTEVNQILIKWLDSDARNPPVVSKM
Assay type: biochemical
CONDITION_DETAILS: compared to 2-naphthalene analog 7-38
Quick rule for you: fold lower potency against sEH under 20 fold gets Met, anything else gets Not met.

SMILES_RECORD	LABEL_CLASS
Cc1ccc(S(=O)(=O)N2CCC(C(=O)Nc3ccc4ccccc4c3)CC2)c(C)c1	Not met
Cc1ccc(S(=O)(=O)N2CCC(C(=O)Nc3ccc(Cl)c(C(F)(F)F)c3)CC2)c(C)c1	Not met
Cc1ccc(S(=O)(=O)N2CCC(C(=O)Nc3ccc(Br)cc3)CC2)c(C)c1	Not met

Input: Identify whether the compound Cc1ccc(S(=O)(=O)N2CCC(C(=O)Nc3ccc(F)cc3)CC2)c(C)c1 records fold lower potency against sEH below 20 fold.
Output: Met

Input: Would you kindly verify if fold lower potency against sEH of Cc1ccc(S(=O)(=O)N2CCC(C(=O)Nc3cccc4cnccc34)CC2)c(C)c1 is strictly less than 20 fold?
Output: Met
